Biological target: M2 muscarinic receptor (Homo sapiens, UniProt P08172)
Construct: expressed in transfected cells; host or cells: CHO (M2-CHO)
Sequence (P08172 whole entry): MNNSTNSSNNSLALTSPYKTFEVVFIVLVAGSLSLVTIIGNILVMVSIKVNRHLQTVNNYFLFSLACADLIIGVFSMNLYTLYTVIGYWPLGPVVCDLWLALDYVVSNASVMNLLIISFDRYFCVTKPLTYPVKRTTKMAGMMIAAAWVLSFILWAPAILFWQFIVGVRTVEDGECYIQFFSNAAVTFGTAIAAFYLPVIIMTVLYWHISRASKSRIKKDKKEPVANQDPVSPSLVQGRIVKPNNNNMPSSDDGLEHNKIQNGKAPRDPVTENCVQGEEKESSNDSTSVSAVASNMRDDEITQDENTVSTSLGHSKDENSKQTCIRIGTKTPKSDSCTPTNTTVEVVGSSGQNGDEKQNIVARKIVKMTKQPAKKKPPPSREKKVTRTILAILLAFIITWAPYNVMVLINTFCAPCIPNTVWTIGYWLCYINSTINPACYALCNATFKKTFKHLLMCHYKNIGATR
Assay: Functional mobilization of intracellular calcium (FLIPR) in CHO cells expressing M2
Type: cell-based
Details: CHO; 100% efficacy = maximum response obtained with the Carbachol control
Emax: recorded values
readoutLabel: Emax

smilesText: CC(C)(C)CCN1CCC2(CC[C@H](NC(=O)[C@H]3CCC(=O)N3)c3ccc(F)cc32)CC1
result: 25 to 100%
//
smilesText: CC(=O)CCC(=O)N[C@@H]1CCC2(CCN(CCC(C)(C)C)CC2)c2ccccc21
result: < 25%
//
smilesText: CCOC(=O)N(C)[C@H]1CCC2(CCN(CCC(C)(C)C)CC2)c2ccccc21
result: < 25%

---

Target: M2 muscarinic receptor (Homo sapiens, UniProt P08172)
Construct: expressed in transfected cells; host or cells: CHO (M2-CHO)
Assay: Functional mobilization of intracellular calcium (FLIPR) in CHO cells expressing M2
Format: cell-based
Conditions: CHO; 100% = maximum response obtained with the Carbachol control; read-out: M2 Efficacy
Description: Functional Mobilization of Intracellular Calcium to Determine Muscarinic Receptor Activity: […] Compounds are prepared at a 2× fold concentration in a 96-well plate (round bottom, Costar Corning cat#3656), by reconstituting the pre-spotted compounds in bath 1 containing 1 mM probenecid. […] In both assay modes, the fluorescence is recorded for 60 sec (excitation wavelength is […] and emission wavelength 540 nm) using the FLIPR 3 instrument. […]
readoutLabel: Emax

molecule: Cn1cncc1C(=O)N[C@@H]1CCC2(CCN(CCC(C)(C)C)CC2)c2ccccc21
readoutLabel: Emax
result: < 25%
--
molecule: CC(=O)N1CCC[C@@H]1C(=O)N[C@H]1CCC2(CCN(CCC(C)(C)C)CC2)c2ccccc21
readoutLabel: Emax
result: < 25%
--
molecule: C[C@@H](C(=O)N[C@@H]1CCC2(CCN(CCC(C)(C)C)CC2)c2cc(F)ccc21)N1CCCC1=O
readoutLabel: Emax
result: < 25%
--
molecule: CC(C)NC(=O)C1CCC2(CCN(CCC(C)(C)C)CC2)c2ccccc21 (stereo not shown)
readoutLabel: Emax
result: < 25%
--
molecule: CC(C)(C)CCN1CCC2(CC[C@H](NC(=O)C3CCCO3)c3ccccc32)CC1 (stereo partly shown)
readoutLabel: Emax
result: < 25%
--
molecule: CC(C)(C)CCN1CCC2(CC[C@H](NC(=O)C3CC3)c3ccccc32)CC1
readoutLabel: Emax
result: 25 to 100%
--
molecule: CSC(C)CCN1CCC2(CC[C@H](NC(C)=O)c3ccccc32)CC1 (stereo partly shown)
readoutLabel: Emax
result: < 25%
--
molecule: CC(C)(C)CCN1CCC2(CC[C@@H](N3CCCC3=O)c3ccc(F)cc32)CC1
readoutLabel: Emax
result: < 25%
--
molecule: COCCC(=O)N[C@H]1CCC2(CCN(CCC(C)(C)C)CC2)c2ccccc21
readoutLabel: Emax
result: 25 to 100%
--
molecule: COCCC(=O)N[C@@H]1CCC2(CCN(CCC(C)(C)C)CC2)c2ccccc21
readoutLabel: Emax
result: < 25%
--
molecule: CCN(C(=O)CC(C)(C)O)[C@H]1CCC2(CCN(CCC(C)(C)C)CC2)c2ccccc21
readoutLabel: Emax
result: < 25%
--
molecule: CC(C)(C)CCN1CCC2(CC1)CC(F)(F)C(=O)c1ccccc12
readoutLabel: Emax
result: 25 to 100%
--
molecule: CC(CC(C)(C)C)N1CCC2(CC[C@H](NC(=O)N(C)C)c3ccccc32)CC1 (stereo partly shown)
readoutLabel: Emax
result: < 25%
--
molecule: CCOCCC(=O)N[C@@H]1CCC2(CCN(CCC(C)(C)C)CC2)c2ccccc21
readoutLabel: Emax
result: 25 to 100%
--
molecule: CC(=O)N1CCCC(C(=O)N[C@H]2CCC3(CCN(CCC(C)(C)C)CC3)c3ccccc32)C1 (stereo partly shown)
readoutLabel: Emax
result: < 25%
--
molecule: COC(=O)CN(C(C)=O)[C@H]1CCC2(CCN(CCC(C)(C)C)CC2)c2ccccc21
readoutLabel: Emax
result: < 25%
--
molecule: CCN(C(=O)CCNC(C)=O)[C@@H]1CCC2(CCN(CCC(C)(C)C)CC2)c2ccccc21
readoutLabel: Emax
result: < 25%
--
molecule: CC(C)(C)CCN1CCC2(CC[C@H](NC(=O)C3CC3)c3ccc(F)cc32)CC1
readoutLabel: Emax
result: 25 to 100%
--
molecule: CN(C(=O)C1CC1)[C@H]1CCC2(CCN(CCC(C)(C)C)CC2)c2ccccc21
readoutLabel: Emax
result: < 25%
--
molecule: CCOCC(=O)N[C@H]1CCC2(CCN(CCC(C)(C)C)CC2)c2ccccc21
readoutLabel: Emax
result: < 25%
--
molecule: CC(C)(C)CCN1CCC2(CC[C@@H](NC(=O)[C@@H]3CCC(=O)N3)c3ccc(F)cc32)CC1
readoutLabel: Emax
result: < 25%
--
molecule: C[C@@H](C(=O)N[C@H]1CCC2(CCN(CCC(C)(C)C)CC2)c2cc(F)ccc21)N1CCCC1=O
readoutLabel: Emax
result: 25 to 100%
--
molecule: CC(=O)N[C@H]1CCC2(CCN(CC=C(C)C)CC2)c2ccccc21
readoutLabel: Emax
result: < 25%
--
molecule: C[C@H](C(=O)N[C@H]1CCC2(CCN(CCC(C)(C)C)CC2)c2ccccc21)N1CCCC1=O
readoutLabel: Emax
result: < 25%
--
molecule: CC(=O)N1CCCC[C@@H]1C(=O)N[C@H]1CCC2(CCN(CCC(C)(C)C)CC2)c2cc(F)ccc21
readoutLabel: Emax
result: < 25%
--
molecule: CC(=O)CCC(=O)N[C@H]1CCC2(CCN(CCC(C)(C)C)CC2)c2cc(F)ccc21
readoutLabel: Emax
result: 25 to 100%
--
molecule: C=CCCCN1CCC2(CC[C@H](NC(C)=O)c3ccccc32)CC1
readoutLabel: Emax
result: 25 to 100%
--
molecule: CCN(C(=O)C1CCOC1)[C@H]1CCC2(CCN(CCC(C)(C)C)CC2)c2ccccc21 (stereo partly shown)
readoutLabel: Emax
result: < 25%
--
molecule: CCOCC(=O)N[C@@H]1CCC2(CCN(CCC(C)(C)C)CC2)c2cc(F)ccc21
readoutLabel: Emax
result: < 25%
--
molecule: CC(=O)N1CCCC[C@H]1C(=O)N[C@H]1CCC2(CCN(CCC(C)(C)C)CC2)c2cc(F)ccc21
readoutLabel: Emax
result: < 25%
--
molecule: CC(=O)N1CCCCC1C(=O)N[C@H]1CCC2(CCN(CCC(C)(C)C)CC2)c2ccccc21 (stereo partly shown)
readoutLabel: Emax
result: < 25%

---

Target: M4 muscarinic receptor (Homo sapiens)
Sequence (P08173 1-479): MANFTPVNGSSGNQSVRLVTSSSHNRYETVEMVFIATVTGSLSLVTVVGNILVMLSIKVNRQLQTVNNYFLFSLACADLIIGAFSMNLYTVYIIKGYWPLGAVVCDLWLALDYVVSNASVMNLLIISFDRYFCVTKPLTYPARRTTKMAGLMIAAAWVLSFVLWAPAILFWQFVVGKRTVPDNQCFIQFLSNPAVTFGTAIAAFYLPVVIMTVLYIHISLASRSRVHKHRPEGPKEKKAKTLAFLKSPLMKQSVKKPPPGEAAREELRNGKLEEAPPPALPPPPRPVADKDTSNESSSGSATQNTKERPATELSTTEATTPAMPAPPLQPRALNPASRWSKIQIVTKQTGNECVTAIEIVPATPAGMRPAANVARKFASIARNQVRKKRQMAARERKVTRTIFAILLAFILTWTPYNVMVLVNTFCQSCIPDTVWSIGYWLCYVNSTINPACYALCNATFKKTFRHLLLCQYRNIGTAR
Experiment: Functional mobilization of intracellular calcium (FLIPR) in CHO cells expressing M4
Details: CHO cells expressing M4, FLIPR calcium
pEC50: −log10 of the molar value.

smilesText: CCC(=O)N(C)[C@H]1CCC2(CCN(CCC(C)(C)C)CC2)c2ccccc21
pEC50: > 5.70

smilesText: CCN(C(=O)Cc1cccnc1)[C@H]1CCC2(CCN(CCC(C)(C)C)CC2)c2ccccc21
pEC50: > 5.70

smilesText: CC(=O)NCCC(=O)N[C@@H]1CCC2(CCN(CCC(C)(C)C)CC2)c2cc(F)ccc21
pEC50: > 5.70

smilesText: CC(=O)N(C(C)C)[C@H]1CCC2(CCN(CCC(C)C)CC2)c2ccccc21
pEC50: 5.30 to 5.70

---

Biological target: M1 muscarinic receptor (Homo sapiens)
Sequence (P11229 1-460): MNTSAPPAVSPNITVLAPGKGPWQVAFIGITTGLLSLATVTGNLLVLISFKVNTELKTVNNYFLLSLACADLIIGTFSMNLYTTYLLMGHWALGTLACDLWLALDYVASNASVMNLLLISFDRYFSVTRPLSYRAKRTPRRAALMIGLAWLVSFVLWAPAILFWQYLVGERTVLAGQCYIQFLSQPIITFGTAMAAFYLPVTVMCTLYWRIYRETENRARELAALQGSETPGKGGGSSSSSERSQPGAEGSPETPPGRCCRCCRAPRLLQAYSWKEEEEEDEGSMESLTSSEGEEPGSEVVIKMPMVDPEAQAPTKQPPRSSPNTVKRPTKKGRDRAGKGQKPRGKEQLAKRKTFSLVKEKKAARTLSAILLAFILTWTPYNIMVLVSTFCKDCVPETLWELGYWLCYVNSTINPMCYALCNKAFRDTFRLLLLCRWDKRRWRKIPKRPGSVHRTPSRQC
Experiment: Functional mobilization of intracellular calcium (FLIPR) in CHO cells expressing M1
Details: CHO cells expressing M1, FLIPR calcium
pEC50: −log10 of the molar value.

compound: C=CCCCN1CCC2(CC[C@H](NC(C)=O)c3ccccc32)CC1 [compound 172]
pEC50: > 5.70

compound: CC(C)(C)CCN1CCC2(CC[C@H](NC(=O)C3CCCO3)c3ccc(F)cc32)CC1 (some centres unmarked) [compound 27]
pEC50: > 5.70

compound: CC(=O)N[C@@H]1CCC2(CCN(CCC(C)(C)C)CC2)c2ccccc21 [compound 64]
pEC50: 5.30 to 5.70

compound: CC(=O)N[C@H](C)C(=O)N[C@@H]1CCC2(CCN(CCC(C)(C)C)CC2)c2ccccc21 [compound 162]
pEC50: < 5.30

compound: COC(=O)CCCN1CCC2(CC[C@H](NC(C)=O)c3ccccc32)CC1 [compound 16]
pEC50: 5.30 to 5.70

compound: CCN(C(=O)c1cncn1C)[C@@H]1CCC2(CCN(CCC(C)(C)C)CC2)c2ccccc21 [compound 101]
pEC50: > 5.70

compound: Cc1cc(C(=O)N[C@H]2CCC3(CCN(CCC(C)(C)C)CC3)c3ccccc32)nn1C [compound 151]
pEC50: > 5.70

compound: CC(C)(C)CCN1CCC2(CC[C@H](NC(=O)c3cccnc3)c3ccccc32)CC1 [compound 108]
pEC50: > 5.70

compound: CC(=O)N(C)[C@H]1CCC2(CCN(CCC(C)C)CC2)c2ccccc21 [compound 184]
pEC50: > 5.70

compound: CC(=O)N1CCC[C@@H]1C(=O)N[C@H]1CCC2(CCN(CCC(C)(C)C)CC2)c2ccccc21 [compound 160]
pEC50: > 5.70

compound: CCC(=O)C1NCCC1C(=O)N[C@H]1CCC2(CCN(CCC(C)(C)C)CC2)c2cc(F)ccc21 (some centres unmarked) [compound 26]
pEC50: > 5.70

compound: CCN(C(=O)c1cncn1C)[C@H]1CCC2(CCN(CCC(C)(C)C)CC2)c2ccccc21 [compound 128]
pEC50: 5.30 to 5.70

compound: CC(=O)N[C@H]1CCC2(CCN(CCC(C)(C)C)CC2)c2cc(F)ccc21 [compound 177]
pEC50: > 5.70

compound: CC(C)(C)CCN1CCC2(CC[C@H](NC(=O)C3CCCO3)c3ccccc32)CC1 (some centres unmarked) [compound 31]
pEC50: > 5.70

compound: CC(C)CCN1CCC2(CC[C@H](NC(=O)N(C)C)c3ccccc32)CC1 [compound 148]
pEC50: < 5.30

compound: CC(=O)N(C(C)C)[C@H]1CCC2(CCN(CCC(C)(C)C)CC2)c2cc(F)ccc21 [compound 86]
pEC50: > 5.70

compound: CCN(C(=O)c1cccnc1)[C@@H]1CCC2(CCN(CCC(C)(C)C)CC2)c2ccccc21 [compound 111]
pEC50: < 5.30
